# TARGET OR SYSTEM: KRAS G12V (Homo sapiens, UniProt P01116+P62937, G12V)
# Sequence (P01116 1-169 isoform P01116-2 G12V limits assumed): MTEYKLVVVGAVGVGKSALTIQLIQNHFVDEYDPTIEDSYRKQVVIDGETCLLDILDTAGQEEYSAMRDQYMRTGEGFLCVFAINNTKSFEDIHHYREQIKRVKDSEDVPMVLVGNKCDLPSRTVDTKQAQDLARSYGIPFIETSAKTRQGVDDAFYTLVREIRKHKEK
# Sequence (P62937 whole entry): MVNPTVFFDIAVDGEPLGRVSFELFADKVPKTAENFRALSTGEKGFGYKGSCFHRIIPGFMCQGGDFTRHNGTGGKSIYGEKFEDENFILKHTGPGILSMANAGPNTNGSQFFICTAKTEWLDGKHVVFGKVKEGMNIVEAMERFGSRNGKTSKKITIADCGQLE
# METHOD SUMMARY: Disruption of BRAF RBD interaction with Ras (FRET / MOA assay, with Cyclophilin A)
# Type: biochemical
# STATED CONDITIONS: KRAS G12V; read-out: KRAS G12V FRET data IC50
pIC50: −log10 of the molar value.
PROPERTY: pIC50

CCn1c(-c2cccnc2[C@H](C)OC)c2c3cc(ccc31)-c1csc(n1)C[C@H](NC(=O)[C@H](C(C)C)N(C)C(=O)N1CC[C@H](N(C)C)C1)C(=O)N1CCC[C@H](N1)C(=O)OCC(C)(C)C2	6.00 to 7.00
CCn1c(-c2cccnc2[C@H](C)OC)c2c3cc(ccc31)-c1csc(n1)C[C@H](NC(=O)[C@H](C(C)C)N(C)C(=O)N1CCN(C(=O)CCN(C)C)CC1)C(=O)N1CCC[C@H](N1)C(=O)OCC(C)(C)C2	6.00 to 7.00

Give measured pIC50 for every item shown.
1. CCn1c(-c2cccnc2[C@H](C)OC)c2c3cc(ccc31)-c1cc(O)cc(c1)C[C@H](NC(=O)[C@H](C(C)C)N(C)C(=O)[C@@H]1C[C@H]1C)C(=O)N1CCC[C@H](N1)C(=O)OCC(C)(C)C2
2. CCn1c(-c2cc(N3CCN(C)CC3)cnc2[C@H](C)OC)c2c3cc(ccc31)-c1csc(n1)C[C@H](NC(=O)[C@H](C1CCCC1)N(C)C(=O)N(C)C)C(=O)N1CCC[C@H](N1)C(=O)OCC(C)(C)C2 (atropisomer, axis not shown)

["7.00 to 8.00", "7.00 to 8.00"]
